Sourced from patent US20260042753A1

- TARGET DESC: mutant cKIT (560-576 and V654A) in GIST430/654 cell line (Homo sapiens (Human), UniProt P10721, DEL560-576/V654A)
- Sequence (P10721 other isoform, or with tags, fused parts or gaps V654A/del 1-25/del 560-576 limits assumed): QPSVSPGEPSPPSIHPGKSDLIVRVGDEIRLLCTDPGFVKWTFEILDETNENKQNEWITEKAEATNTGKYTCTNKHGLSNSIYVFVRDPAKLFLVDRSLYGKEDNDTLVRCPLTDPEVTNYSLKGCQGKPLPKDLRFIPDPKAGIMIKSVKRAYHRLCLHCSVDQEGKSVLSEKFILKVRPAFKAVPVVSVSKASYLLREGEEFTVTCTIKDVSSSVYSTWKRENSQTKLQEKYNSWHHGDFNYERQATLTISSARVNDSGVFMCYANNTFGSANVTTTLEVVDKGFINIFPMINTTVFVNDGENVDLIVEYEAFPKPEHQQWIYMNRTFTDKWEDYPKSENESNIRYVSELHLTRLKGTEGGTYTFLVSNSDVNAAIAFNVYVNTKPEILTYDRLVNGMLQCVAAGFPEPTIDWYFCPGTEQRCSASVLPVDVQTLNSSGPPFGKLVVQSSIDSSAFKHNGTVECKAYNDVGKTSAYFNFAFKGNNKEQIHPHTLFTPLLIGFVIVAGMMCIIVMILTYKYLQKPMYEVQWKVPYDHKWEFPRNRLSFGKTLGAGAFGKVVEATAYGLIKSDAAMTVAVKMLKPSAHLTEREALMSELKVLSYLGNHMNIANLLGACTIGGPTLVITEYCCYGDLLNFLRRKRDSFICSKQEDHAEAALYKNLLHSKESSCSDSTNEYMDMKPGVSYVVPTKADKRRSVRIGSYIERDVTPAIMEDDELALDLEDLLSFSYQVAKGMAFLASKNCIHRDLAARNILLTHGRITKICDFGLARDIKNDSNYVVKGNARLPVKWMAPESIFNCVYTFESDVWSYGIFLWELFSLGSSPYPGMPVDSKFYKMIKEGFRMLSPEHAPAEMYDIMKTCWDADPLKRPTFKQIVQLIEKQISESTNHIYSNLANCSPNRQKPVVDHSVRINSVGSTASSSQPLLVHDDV
- EXPERIMENTAL PROTOCOL: Cellular testing of cKIT mutant inhibitors: phospho-Y307-cKIT Luminex assay in GIST430/654 cells
- Format: cell-based
- CONDITION DESCRIPTION: Table 1; cKIT autophosphorylation, compounds 45 min; read-out: GIST 430/654 IC50
ATTRIBUTE MEASURED: IC50 (µM)

Illustrative cases are given below, each with its answer.
- COMPOUND: "COCCOc1cc2[nH]nc(-c3cc(-c4ccc(C(=O)N5Cc6ccncc6C5)cc4)no3)c2cc1F"
  VALUE UNITS: "µM"
  VALUE REPORTED: 0.018
- COMPOUND: "COCCOc1cc2[nH]nc(-c3cc(-c4ccc(C(=O)N5CCC[C@H]5C(C)(C)O)cc4)no3)c2cc1F"
  VALUE UNITS: "µM"
  VALUE REPORTED: 0.02

(I) COCCOc1cc2[nH]nc(-c3cc(-c4ccc(C(=O)N5CCN(C)CC5CO)cc4)no3)c2cc1F (stereo not drawn)
(II) COCCOc1cc2[nH]nc(-c3cc(-c4ccc(C(=O)N5CC[C@H]5CS(C)(=O)=O)cc4)no3)c2cc1F
Look at I and II . Which one has the lower recorded IC50 number? Reply with the label of the item you choose.
II
(II: 0.064 µM, I: 0.13 µM)
